Tested on: CuFi-1 cells
Experiment: Secretory activity for chloride ions (MQAE fluorescence) in CuFi-1 cells
Type: cell-based
Conditions: CuFi-1 cells, zinc final concentration 10 μM, hydrochloride
Counter-ions that a name gives are not always drawn.
METRIC_NAME: EC50 (nM)

# MOLECULE, METRIC_NAME, ENDPOINT_VALUE
records = [
    ("CCNc1nc(C(=O)O)nc(C)c1Sc1ccccc1Cl [Example 22, hydrochloride]", "EC50", 7.1),
]

Origin of measurements: patent US11034659B2
